- Tested on: SK-MEL-28
- measurementDescription: NCI tumour cell line growth inhibition, 48 h
Activity calls are given as the source filed them. Rule as the data show it: active = GI50 up to about 1.1 µM and inactive = higher.
Please reply with one of these outcomes: class 1 = active, class 0 = inactive

Input line: How did this test come out for "COc1ccc2oc(=O)c(CC=C(C)C)c(O)c2c1C" ?
Output line: class 0

Input line: How did this test come out for OCC12C3C4C5C3C1C5C42 (stereo not given) ?
Output line: class 0

Input line: How did this test come out for CCCCSC1CCSc2c1ccc1ccccc21 (stereo not given) ?
Output line: class 0

Input line: How did this test come out for COC(=O)C1=C(OC(=O)/C(=C/c2ccccc2)c2ccc(Cl)cc2)C(C(=O)OC)[C@@]2(O)[C@@H](C(=O)OC)[C@H](C)C[C@@H]1[C@@H]2C(=O)OC (stereo not given in full) ?
Output line: class 0

Input line: How did this test come out for CN1CCC23c4c5ccc(O)c4OC2c2[nH]c4ccccc4c2CC3(O)C1C5 (stereo not given) ?
Output line: class 0

Input line: How did this test come out for "O=C(c1c(F)c(F)c(F)c(F)c1F)c1c(F)c(F)c(F)c(F)c1F" ?
Output line: class 0

Input line: How did this test come out for "CC(=O)O[C@H]1C[C@H]2[C@@H](OC(C)=O)/C=C3\C[C@](C)(C(=O)[C@H](O)C(=C1C)C2(C)C)[C@@H](O)C[C@@H]3OC(=O)[C@H](O)[C@H](c1ccccc1)N(C)C" ?
Output line: class 0

Input line: How did this test come out for [O-][S+]1SC(=S)C2C=CC=CC21 (stereo not given) ?
Output line: class 0

Input line: How did this test come out for "CCN(CC)CCNc1ccc2nnn3c4ccc(O)cc4c(=O)c1c23" ?
Output line: class 0

Input line: How did this test come out for COc1ccc(C2Oc3c(cccc3-c3c(-c4ccc(O)cc4)oc4cc(O)cc(O)c4c3=O)C(=O)C2O)cc1O (stereo not given) ?
Output line: class 0

Input line: How did this test come out for CC(C)C(/N=C1\CC2CCC1(C(=O)Nc1ccccc1O)C2(C)C)c1ccccc1 (stereo not given) ?
Output line: class 0

Input line: How did this test come out for "CC(C)(Oc1ccc(C(=O)c2ccc(Cl)cc2)cc1Cl)C(=O)N1CCN(c2ccccc2)CC1" ?
Output line: class 0

Input line: How did this test come out for C=C1CC2(CCS(=O)(=O)c3ccccc32)OC1=O (stereo not given) ?
Output line: class 0

Input line: How did this test come out for "CNC(=O)/C(C#N)=C(\N)N1CCCC1" ?
Output line: class 0

Input line: How did this test come out for "CCOC(=O)/C=C/n1c2ccccc2c(=O)c2ccccc21" ?
Output line: class 0

Input line: How did this test come out for COC1C(O)C(C)OC(OC2C(Oc3cccc4c(O)c5c(=O)oc6ccc(C)c7c(=O)oc(c34)c5c67)OC(C)C3O[C@H](c4ccccc4)OC32)C1O (stereo not given in full) ?
Output line: class 1

Input line: How did this test come out for "COc1cc(NC=C2C(=O)OC(C)(C)OC2=O)c(OC)c(C)c1OC" ?
Output line: class 0

Input line: How did this test come out for "Cc1c(C=C(C#N)C#N)c(=O)n(C)c(=O)n1C" ?
Output line: class 0

Input line: How did this test come out for "Cc1cc(S(=O)(=O)Nc2nnc3cc(C(F)(F)F)cc(C)n23)c(S)cc1Cl" ?
Output line: class 0

Input line: How did this test come out for COC(=O)c1ccc(C)cc1C1CN=NC12Cc1cccc(C)c1C2=O (stereo not given) ?
Output line: class 0

Source listed as ChEMBL document CHEMBL1201862.
